experiment: Antiproliferative activity against human PANC1 cells after 48 hrs by MTT assay; type: functional, cell-based; conditions: PANC-1, 48 h
QUANTITY: IC50 (µg/mL)
The response must be a number in µg/mL with no trailing unit.

query: Requested field: IC50. Item: CC(C)(C)c1ccc(C2C(C#N)=C(N)OC3=C2C(=O)CC3)cc1 (stereo unspecified)
result: 219

query: Requested read-out: IC50. Entry: N#CC1=C(N)OC2=C(C(=O)CC2)C1c1cccc(C#N)c1 (stereo unspecified)
result: 143

query: Need IC50, item N#CC1=C(N)OC2=C(C(=O)CC2)C1c1ccc(Cl)cc1Cl (stereo unspecified)
result: 156

query: Look up IC50: O=c1oc2ccccc2c(O)c1C(c1ccc(F)c(F)c1)c1c(O)c2ccccc2oc1=O
result: 82.4

query: Requested read-out: IC50. Entry: CC1(C)CC(=O)C2=C(C1)OC(N)=C(C#N)C2c1cc(F)c(F)c(F)c1 (stereo unspecified)
result: 283

query: # query: IC50 of entry N#CC1=C(N)Oc2c(c(=O)oc3ccccc23)C1c1ccc([N+](=O)[O-])cc1 (stereo unspecified)
result: 218
